Reported melting point values for the following molecules.
Could you give me the number in °C? Just the number is fine.

Illustrative cases are given below, each with its answer.
| MOL_SMILES | OBSERVED |
| --- | --- |
| COC(=O)NCc1cn(-c2ccc(N3CC[S+]([O-])CC3)c(F)c2)nn1 | 218 |
| CC(=O)NCc1cn(-c2cc(F)c(N3CCS(=O)(=O)CC3)c(F)c2)nn1 | 197 |
| CC(=O)NCc1cn(-c2ccc(N3CCOCC3)c(F)c2)nn1 | 218 |
| COC(=S)NCc1cn(-c2ccc(N3CCSCC3)c(F)c2)nn1 | 168 |

The record that follows has no melting point shown yet.
Q) Could you please provide reported melting point for CC(=S)NCc1cn(-c2ccc(N3CC[S+]([O-])CC3)c(F)c2)nn1 ? Thanks!
A) 245

====

The entries below come with measured melting point values attached.
Numeric answer only, unit °C assumed.

Solved cases (2 shown):
| MOLECULE | UNIT_OF_MEASURE | melting point |
| --- | --- | --- |
| O=C(NC(=S)NCc1cn(-c2ccc(N3CCOCC3)c(F)c2)nn1)c1ccccc1 [Example 70] | °C | 138 |
| COC(=S)NCc1cn(-c2ccc(N3CCS(=N)CC3)c(F)c2)nn1 [Example 63] | °C | 198 |

Q) Could you please provide reported melting point for CC(=O)NCc1cn(-c2cc(F)c(N3CC[S+]([O-])CC3)c(F)c2)nn1 [Example 44] ? Thanks!
A) 203

====

READOUT_KIND: melting point

Q) Fill in reported melting point for this entry: COC(=S)NCc1cn(-c2cc(F)c(N3CCSCC3)c(F)c2)nn1
A) 127 °C

Q) Answer with reported melting point of CSC(=S)OCc1cn(-c2ccc(N3CCOCC3)c(F)c2)nn1
A) 118 °C

Q) Look up and report measured melting point for this entry: CC(=S)NCc1cn(-c2cc(F)c(N3CCOCC3)c(F)c2)nn1
A) 190 °C

Q) For CC(=O)NCc1cn(-c2cc(F)c(N3CCSCC3)c(F)c2)nn1 , write its melting point.
A) 210 °C

Q) Retrieve melting point measured for O=C(NCc1cn(-c2ccc(N3CCOCC3)c(F)c2)nn1)C(Cl)Cl and print it.
A) 190 °C

Q) Recall and state the measured melting point for NC(=S)NCc1cn(-c2ccc(N3CC[S+]([O-])CC3)c(F)c2)nn1 .
A) 228 to 230 °C

Q) Identify melting point associated with the compound CC(=O)NCc1cn(-c2cc(F)c(N3CCOCC3)c(F)c2)nn1
A) 218 °C

Q) Please look at this compound and report its melting point: COC(=S)NCc1cn(-c2ccc(N3CCC(=NO)CC3)c(F)c2)nn1
A) 141 to 142 °C

Q) Fill in reported melting point for this entry: COC(=S)NCc1cn(-c2ccc(N3CCC(=O)CC3)c(F)c2)nn1
A) 145 to 147 °C

====

READOUT_KIND: melting point (°C)
Give your result in °C as a bare value.

Q) Answer with reported melting point of [N-]=[N+]=NCc1cn(-c2ccc(N3CCOCC3)c(F)c2)nn1
A) 90

Q) Please indicate melting point recorded for COC(=S)NCc1cn(-c2ccc(N3CCC(=C(C#N)C#N)CC3)c(F)c2)nn1
A) 198

Q) Return reported melting point. Input compound: COC(=S)NCc1cn(-c2cc(F)c(N3CC[S+]([O-])CC3)c(F)c2)nn1
A) 202

Q) Please list melting point recorded for the compound CSC(=S)NCc1cn(-c2ccc(N3CC[S+]([O-])CC3)c(F)c2)nn1
A) 184

====

melting point vs 200 °C: less than gives true; not less than gives false.

Worked examples follow.
| MOL_SMILES | CLASS_LABEL |
| --- | --- |
| NCc1cn(-c2cc(F)c(N3CC[S+]([O-])CC3)c(F)c2)nn1 | true |
| CNC(=S)NCc1cn(-c2cc(F)c(N3CCOCC3)c(F)c2)nn1 | true |

Q) Lab note: confirm whether the reported melting point for this compound is below 200 °C, equality not counting. compound: O=C(NCc1cn(-c2ccc(N3CCOCC3)c(F)c2)nn1)c1cnccn1
A) false

Q) Consider the compound COC(=S)NCc1cn(-c2ccc(N3CCOCC3)c(F)c2)nn1 . Is its melting point strictly less than 200 °C?
A) true

====

Recorded melting point, one value per entry.
Express the result in °C but write the number alone.

| COMPOUND | UNIT_OF_MEASURE | melting point |
| --- | --- | --- |
| OCc1cn(-c2ccc(N3CCOCC3)c(F)c2)nn1 [Example 2] | °C | 198 |

Q) Given the compound NC(=S)NCc1cn(-c2ccc(N3CCOCC3)c(F)c2)nn1 [Example 76] , write its reported melting point.
A) 192

Q) Let me know recorded melting point for CC(=O)NCc1cn(-c2ccc(N3CCSCC3)c(F)c2)nn1 [Example 46] , thanks.
A) 207

Q) Input COC(=S)NCc1cn(-c2cc(F)c(N3CCS(=O)(=O)CC3)c(F)c2)nn1 [Example 58] , output reported melting point.
A) 162

Q) Consider the compound COC(=S)NCc1cn(-c2ccc(N3CC[S+]([O-])CC3)c(F)c2)nn1 [Example 60] . State its measured melting point.
A) 198

Q) Return melting point (reported value) for this compound: CCNC(=S)NCc1cn(-c2ccc(N3CC[S+]([O-])CC3)c(F)c2)nn1 [Example 65]
A) 204

Q) // Input: COC(=S)NCc1cn(-c2ccc(N3CCS(=O)(=O)CC3)c(F)c2)nn1 [Example 61] . Output its melting point only.
A) 184

====

Measured melting point, listed per entry.

| MOL_SMILES | OBSERVED |
| --- | --- |
| O=C(NCc1cn(-c2ccc(N3CCSCC3)c(F)c2)nn1)c1cnccn1 | 216 to 218 °C |
| CNC(=S)NCc1cn(-c2ccc(N3CC[S+]([O-])CC3)c(F)c2)nn1 | 182 to 184 °C |

Q) Return reported melting point. Input compound: CS(=O)(=O)NCc1cn(-c2ccc(N3CC[S+]([O-])CC3)c(F)c2)nn1
A) 174 to 176 °C

====

Overview of reported melting point across a group of molecules:
Value expressed in °C; do not type the unit.

Use the examples below as a reference point.
| MOL_SMILES | melting point [°C] |
| --- | --- |
| COC(=S)NCc1cn(-c2cc(F)c(N3CCOCC3)c(F)c2)nn1 | 135 |
| CC(=O)NCc1cn(-c2ccc(N3CC[S+]([O-])CC3)c(F)c2)nn1 | 210 |

Attention now turns to another entry.
Q) Fill in melting point for record CC(=S)NCc1cn(-c2ccc(N3CCOCC3)c(F)c2)nn1
A) 192
